- measurementTarget: canine TRPM8 (Canis lupus familiaris)
- Construct: expressed in transfected cells
- measurementDescription: In vitro canine TRPM8 functional assay (icilin-induced Ca2+ fluorescence, FLIPR/FDSS)
- Format: cell-based
- settings: HEK293, 1 μM compound; HEK293 canine TRPM8; icilin challenge
Quick list: inhibition at 1 µM per entry.
The reply should be a number in %, with the unit left off.

Examples with their reported inhibition at 1 µM follow.
CC(C)(C)c1ccc(C(Nc2ccccc2)C(=O)Nc2cccc3cnccc23)cc1 (stereo not shown) : 103
O=C(NC1CCc2ccccc21)C(Nc1ccccc1)c1ccc(C(F)(F)F)cc1 (stereo not shown) : 100
CC(C)(C)c1ccc(C(Nc2ccccc2)C(=O)Nc2cccc3[nH]ncc23)cc1 (stereo not shown) : 100

Entry CC(C)(C)c1ccc(C(Nc2ccccc2)C(=O)Nc2ccc3cnccc3c2)cc1 (stereo not shown) : reported inhibition at 1 µM = ?
97.5

Entry CN(c1ccccc1)C(C(=O)Nc1cccc2cnccc12)c1ccc(C(C)(C)C)cc1 (stereo not shown) : reported inhibition at 1 µM = ?
101

Entry O=C(Nc1cccc2cnccc12)C(Nc1ccccc1)c1ccc(C(F)(F)F)cc1 (stereo not shown) : reported inhibition at 1 µM = ?
102

Entry CC(C)(C)c1ccc(C(Nc2ccccc2)C(=O)Nc2cccc3[nH]ccc23)cc1 (stereo not shown) : reported inhibition at 1 µM = ?
100

----------
- measurementTarget: canine TRPM8 (Canis lupus familiaris, UniProt Q1A7N1)
- Construct: expressed in transfected cells
- Sequence (Q1A7N1 1-1104): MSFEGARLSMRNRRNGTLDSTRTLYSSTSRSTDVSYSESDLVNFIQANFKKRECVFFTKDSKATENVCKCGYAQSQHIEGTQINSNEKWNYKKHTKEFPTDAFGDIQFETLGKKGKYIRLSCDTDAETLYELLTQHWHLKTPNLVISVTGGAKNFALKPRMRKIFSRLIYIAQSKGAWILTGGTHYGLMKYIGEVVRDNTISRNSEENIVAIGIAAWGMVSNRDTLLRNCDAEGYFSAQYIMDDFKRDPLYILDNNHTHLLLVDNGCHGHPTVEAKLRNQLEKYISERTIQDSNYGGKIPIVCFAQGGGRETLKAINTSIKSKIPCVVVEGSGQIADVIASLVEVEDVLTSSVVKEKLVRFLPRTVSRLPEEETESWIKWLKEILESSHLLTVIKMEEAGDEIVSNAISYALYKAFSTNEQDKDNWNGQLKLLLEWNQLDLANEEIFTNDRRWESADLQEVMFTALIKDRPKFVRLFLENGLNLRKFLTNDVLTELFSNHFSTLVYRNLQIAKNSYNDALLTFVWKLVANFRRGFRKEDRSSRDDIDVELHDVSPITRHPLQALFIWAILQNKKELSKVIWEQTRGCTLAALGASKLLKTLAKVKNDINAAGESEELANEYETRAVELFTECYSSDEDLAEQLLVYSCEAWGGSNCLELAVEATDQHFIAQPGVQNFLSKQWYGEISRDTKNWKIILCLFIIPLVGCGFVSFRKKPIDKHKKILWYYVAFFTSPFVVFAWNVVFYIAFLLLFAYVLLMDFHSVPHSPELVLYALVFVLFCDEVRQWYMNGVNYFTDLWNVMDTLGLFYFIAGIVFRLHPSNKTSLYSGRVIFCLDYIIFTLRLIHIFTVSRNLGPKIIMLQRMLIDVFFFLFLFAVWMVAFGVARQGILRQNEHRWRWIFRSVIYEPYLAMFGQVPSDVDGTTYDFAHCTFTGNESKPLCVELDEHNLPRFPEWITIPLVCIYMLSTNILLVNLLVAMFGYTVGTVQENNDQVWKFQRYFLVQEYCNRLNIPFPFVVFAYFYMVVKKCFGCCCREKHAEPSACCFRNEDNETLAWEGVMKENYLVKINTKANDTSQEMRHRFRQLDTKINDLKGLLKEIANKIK
- measurementDescription: In vitro canine TRPM8 functional assay (icilin-induced Ca2+ fluorescence, FLIPR/FDSS)
- Format: cell-based
- settings: HEK293, 0.5 μM compound; HEK293 canine TRPM8; icilin challenge
Quick list: inhibition at 0.5 µM per entry.
The reply should be a number in %, with the unit left off.

Examples with their reported inhibition at 0.5 µM follow.
O=C(Nc1cccc2cnccc12)C(Nc1ccccc1)c1ccc(C(F)(F)F)cc1 (single isomer, unassigned) [Cpd 30] : 96
O=C(Nc1cccc2[nH]ccc12)C(Nc1ccc(F)cc1)c1ccc(C(F)(F)F)cc1 (stereo not drawn) [Cpd 34] : 84
O=C(Nc1cccc2cnccc12)C(Nc1c(F)cccc1F)c1ccc(Cl)cc1 (stereo not drawn) [Cpd 48] : 98
O=C(Nc1cccc2ncccc12)C(Nc1c(F)cccc1F)c1ccc(Cl)cc1 (stereo not drawn) [Cpd 49] : 83
O=C(Nc1cccc2cnccc12)C(c1ccc(C(F)(F)F)cc1)N1CCc2ccccc21 (stereo not drawn) [Cpd 18] : 104

Entry COc1ccccc1NC(C(=O)Nc1cccc2cnccc12)c1ccc(C(F)(F)F)cc1 (stereo not drawn) [Cpd 21] : reported inhibition at 0.5 µM = ?
95.3

Entry O=C(Nc1cccc2cccnc12)C(Nc1ccccc1)c1ccc(C(F)(F)F)cc1 (stereo not drawn) [Cpd 29] : reported inhibition at 0.5 µM = ?
85.1

Entry O=C(Nc1cccc2cnccc12)C(Nc1ccccc1F)c1ccc(C(F)(F)F)cc1 (stereo not drawn) [Cpd 24] : reported inhibition at 0.5 µM = ?
104

Entry O=C(Nc1cccc2[nH]ccc12)C(Nc1cccc(F)c1)c1ccc(C(F)(F)F)cc1 (stereo not drawn) [Cpd 37] : reported inhibition at 0.5 µM = ?
94

----------
Quick list: IC50 per entry.
- measurementTarget: canine TRPM8 (Canis lupus familiaris, UniProt Q1A7N1)
- Construct: expressed in transfected cells
- measurementDescription: In vitro canine TRPM8 functional assay (icilin-induced Ca2+ fluorescence, FLIPR/FDSS)
- Format: cell-based
- settings: HEK293 cells stably expressing canine TRPM8; icilin at approx. 80% maximal response; eight-point dose-response
- Protocol: The functional activity of compounds of the formula (I) was determined by measuring changes in intracellular calcium concentration using a Ca^2+-sensitive fluorescent dye. The changes in fluorescent signal were monitored by a fluorescence plate reader, either a FLIPR™ (Molecular Devices) or FDSS (Hamamatsu). […]
The reply should be a number in nM, with the unit left off.

O=C(Nc1cccc2ncccc12)C(Nc1cccc(F)c1F)c1ccc(Cl)cc1 (stereo not drawn) : 219
O=C(Nc1cccc2ncccc12)C(Nc1cc(F)ccc1F)c1ccc(Cl)cc1 (stereo not drawn) : 107
O=C(Nc1cccc2[nH]ccc12)C(Nc1cccc(F)c1)c1ccc(C(F)(F)F)cc1 (stereo not drawn) : 217
COc1ccccc1NC(C(=O)Nc1cccc2cnccc12)c1ccc(C(F)(F)F)cc1 (stereo not drawn) : 287

As a next step, examine the compound that follows.
Entry O=C(Nc1cccc2cnccc12)C(Nc1ccccc1)c1ccc(Cl)cc1 (stereo not drawn) : reported IC50 = ?
158
